assay_comment: NCI Yeast Anticancer Drug Screen. Data for the cln2 rad14 strain (AID 165);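 further: 0% = growth equal to vehicle treated cultures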
condition_parameters: S. cerevisiae cln2 rad14 strain, at 50.0 µM (retest, dose inferred, filed as 5.0), hits give high values
The panel holds about 79,000 compounds, 15% with a hit somewhere; the sample as a whole holds those more often. Where a SMILES comes first, the peptide text is derived from it. The star is where a group is joined. Boc = CC(C)(C)OC(=O)*; OBn = c1ccc(CO*)cc1; Bn = c1ccc(C*)cc1
readout_name: growth inhibition (%)
Give bare numbers, in %.

# annotated cases, reported growth inhibition shown
- O=C1C=C(Br)C(=O)C(Br)=C1: 86
- COc1ccccc1NC(=O)CC(=O)N1N=C(C)C(N=Nc2ccc(C(=O)O)cc2)C1=O (centres undefined): 7
- CS/C(N)=N/NC(=O)CCC(=O)Nc1cc(Cl)c(Cl)cc1Cl: 13
- NC(CCC(=O)NC(CS(=O)(=O)O)C(=O)O)C(=O)O (centres undefined): 4
- Cc1cc(Cl)ccc1OCC(=O)Oc1c(Cl)c(Cl)c(Cl)c(Cl)c1Cl: 33
- C=C(Cl)C(=NC(C)(C)C)Nc1ccccc1C: 37
- O=C(Nc1ccccc1)c1cc(Cl)ccc1O: 33
- OCc1ccccc1CC(O)(c1ccccc1)c1ccccc1: 70

I'm hoping you can list growth inhibition for every compound here, please.
1. Cc1ccnc(NC(c2ccccc2)c2ccc3cccnc3c2O)c1 (centres undefined)
2. CCS(CC)(CC)CC1CCCC2=CCC(P(=O)(c3ccccc3)c3ccccc3)CC21 (centres undefined)
3. CSC(SC)(C(=O)O)c1cc(-c2c(Cl)cccc2Cl)no1
4. O=C(NCCCCCNC(=O)C12CC3CC(CC(C3)C1)C2)C12CC3CC(CC(C3)C1)C2
5. O=C(NNc1ccc(F)cc1)C12CC3CC(CC(C3)C1)C2
6. C/C(=N\NC(=S)N(C)C1CCCCC1)c1ccc2ccccc2n1
7. S=c1nc(N2CCCCC2)ss1
8. c1cc[c]([Sn]([S]c2cccc3cccnc23)([S]c2cccc3cccnc23)[c]2ccccc2)cc1

[95, 5, -5, -2, 57, 88, 70, 98]

Please look at the items below and tell me growth inhibition for each one, in order.
1. CCOC(=O)/C(=C\c1ccc(-c2ccccc2)cc1)C(C)=O
2. CCNc1ccc2c(c1)Cc1ccccc1-2
3. CC(=Nc1ccc(N(C)C)cc1)c1ccccc1
4. C/C(=N/O)c1cc([N+](=O)[O-])c(O)cc1O
5. CC(C)CC(NC(=O)C(Cc1ccccc1)NC(=O)C(COCc1ccccc1)NC(=O)OC(C)(C)C)C(=O)OCc1ccccc1 (stereo not drawn) (Boc-Ser(Bn)-Phe-Leu-OBn; configuration not given here)
6. CC1CC(C)C(C)C(CO)C1 (centres undefined)

85
73
53
44
7
-3

---

assay_comment: NCI Yeast Anticancer Drug Screen. Data for the sgs1 mgt1 strain (AID 161);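 further: 0% = growth of cultures given vehicle only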
condition_parameters: S. cerevisiae sgs1 mgt1 strain, at 50.0 µM (retest, dose inferred, filed as 5.0), hits give high values
About 79,000 compounds went through this panel and 15% of them were active in at least one assay; those are over-represented in the sample as a whole.
readout_name: growth inhibition (%)
One number for each entry, in %.

- CCCCCCCN(CCCCCCC)CC(O)c1ccc2ccc3ccccc3c2c1 (stereo unspecified): 85
- CC1=CC2C(O)(CC(CO)=CC3C4C(C)(C)C4(OC(=O)c4ccccc4)C(OC(=O)c4ccccc4)C(C)C32O)C1=O (stereo unspecified): 97
- CCCCN(CCCC)CCC(O)(c1ccc(OC)c2ccccc12)C(O)(CCN(CCCC)CCCC)c1ccc(OC)c2ccccc12 (stereo unspecified): 99
- O=NN(CCCl)C(=O)Oc1cc(Cl)c(Cl)cc1Cl: 100
- CCN(CC)CCNc1ccc2nnn3c4ccc([N+](=O)[O-])cc4c(=O)c1c23: 15

// for each compound in input: emit growth inhibition
1. O=C=Nc1ccccc1-c1ccc([N+](=O)[O-])cc1Cl
2. CCCCOc1c(OCCCC)c(=O)c1=O
3. O=C1c2cc3c(cc2CC1Br)CCC3 (stereo unspecified)
4. Nc1ccccc1SCc1csc(-c2ccc(Cl)cc2)n1
5. COc1cc(NS(C)(=O)=O)ccc1Nc1c2ccccc2nc2ccccc12
6. S=C(N/N=C(/c1ccccc1)c1ccccn1)Nc1cccc(Cl)c1

1. 44
2. 19
3. 99
4. 98
5. 44
6. 88

---

Hi there, I'd appreciate the recorded growth inhibition for every entry that follows.
assay_comment: NCI Yeast Anticancer Drug Screen. Data for the cln2 rad14 strain (AID 165);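 further: 0% = growth equal to vehicle treated cultures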
condition_parameters: S. cerevisiae cln2 rad14 strain, at 5.0 µM (retest, dose inferred, filed as 0.5), hits give high values
About 79,000 compounds went through this panel and 15% of them were active in at least one assay; those are over-represented in the sample as a whole.
Answers are plain numbers, in %.

• Cc1ccnc2c1ccc1c(C)ccnc12 = -21

For every listed record, write down its growth inhibition.
1. CCCCCCCCCCCCCCOC(=O)C(N)Cc1ccc(O)cc1 (centres undefined)
2. CN(C)CCC(=O)/C=C/c1ccccc1
3. CCS(=O)(=O)/C=C/c1ccc2ccccc2n1
4. O=C1C=CC(=O)c2c(O)c(N3CCC[C@H]3CO)c(Cl)c(O)c21
5. O=c1[nH]c(=S)[nH]c(-c2ccccc2)c1Cc1c(O)ccc2ccccc12
6. CC(C)N=C1NS(=O)(=O)c2ccccc21
7. CC(=O)Oc1cc2c(cc1OC(C)=O)OCC(c1ccccc1)C2 (centres undefined)

1
-2
-41
13
-17
0
3

Give growth inhibition for `CC(C)C1(c2ccccc2)C(=O)c2ccccc2C1=O` 2

---

assay_comment: NCI Yeast Anticancer Drug Screen. Data for the mec2-1 strain (AID 157)
condition_parameters: S. cerevisiae mec2-1 strain, at 5.0 µM (retest, dose inferred, filed as 0.5), hits give high values
This is part of a sample that, as a whole, favours compounds with a hit. Of some 79,000 tested, about 15% had one in any assay.
Please note: 1 (yes) applies when growth inhibition is 20% or greater, and 0 (no) applies otherwise.

- O=S(=O)(Cl)c1ccc(Br)cc1: 1 (yes)

Check if growth inhibition >= 20% (inclusive). Item: CCC1(c2ccc(N3C(=O)c4ccccc4C3=O)cc2)CCC(=O)NC1=O (configuration not stated) 0 (no)

Dear colleague, could you confirm whether `O=c1[nH]c2ccccc2nc1CBr` has growth inhibition at or above 20%? 0 (no)

Is growth inhibition for `N#Cc1c(SCc2ccc(Cl)cc2)nsc1Nc1ccc(Cl)cc1` at or above 20%? 1 (yes)

hey, is growth inhibition for this one >= 20%? `C[C@@]12C(=O)OC(=O)[C@]1(C)[C@H]1CC[C@@H]2O1` 1 (yes)

Check if growth inhibition >= 20% (inclusive). Item: O=C(O)c1ccc2c(c1)CC1(C2)Cc2cc3c(cc2C1=O)CCC3 (configuration not stated) 1 (yes)

Say whether `S=C(N/N=C1\C=Cc2ccccc2C1)N/N=C1\C=Cc2ccccc2C1` shows growth inhibition of 20% or more. 0 (no)

Answer whether growth inhibition of COC(=O)C12Oc3ccc(-c4ccc5c(c4O)C(O)=C4C(=O)CC(C)C(O)C4(C(=O)OC)O5)c(O)c3C(O)=C1C(=O)CC(C)C2O (configuration not stated) is greater than or equal to 20%. 1 (yes)

Is reported growth inhibition greater than or equal to 20% here: `C#CC(C)(C)Nc1c2ccccc2nc2ccccc12` 0 (no)

Please tell me: is the compound COc1cc(OC)cc(C2OC3=C(Nc4ccc([N+](=O)[O-])cc4N3)C2=O)c1 (configuration not stated) at or over 20% in terms of growth inhibition? 0 (no)

// inclusive: growth inhibition at least 20%? input: `C/C=C(/CN/C(=C\[N+](=O)[O-])c1ccccc1)c1ccccc1` 0 (no)

---

assay_comment: NCI Yeast Anticancer Drug Screen. Data for the sgs1 mgt1 strain (AID 161);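 further: 0% = growth of cultures given vehicle only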
condition_parameters: S. cerevisiae sgs1 mgt1 strain, at 50.0 µM, hits give high values
This is part of a sample that, as a whole, favours compounds with a hit. Of some 79,000 tested, about 15% had one in any assay.
growth inhibition vs 90%: at or above is Met, below is Not met.

Worked examples follow.
* CCCCCCCCCCCC1C(C#N)C(=O)NC(=O)C1C#N (stereo unspecified) | Not met
* CN(C)CCC(/C=C/c1ccccc1)=N\Nc1c(F)c(F)c(F)c(F)c1F | Not met
* CCCCCCCCC(C)c1ccccc1O (stereo unspecified) | Met
* O=[N+]([O-])/C(C(Cl)=C(Cl)Cl)=C(/Sc1ccccc1)N1CCOCC1 | Not met
* CCN(CC)C(=S)N/N=C/c1cc([N+](=O)[O-])ccc1O | Not met

Does CN(C)c1ccc(C2C=C(c3ccccc3)Oc3ccccc32)cc1 (stereo unspecified) have a reported growth inhibition of at least 90%? Met

Does the reported growth inhibition for `CC(=O)Nc1ccc2c(c1)/C(=N/O)c1ccccc1-2` fall at or above the 90% mark? Not met

Identify whether the reported growth inhibition of the following compound is 90% or greater: COc1cc(C(c2cc3c(cc2O)OCO3)N2CCCCC2)cc(OC)c1OC (stereo unspecified) Not met

Determine whether measured growth inhibition meets or exceeds 90% for `C[CH2][Sn]([CH2]C)([O]C(=O)c1c(F)cccc1F)[O][Sn]([CH2]C)([CH2]C)[O]C(=O)c1c(F)cccc1F` Not met
